Test: blockers of STAT3 transcriptional signaling – U3A cells, luciferase, luminescence, MLSCN library, primary screen (AID 862);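 further: 0% = DMSO only wells and 100% = 100 µM nifuroxazide control wells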
Details: IL-6 STAT3-luciferase reporter, at 5.5 µM, host cell line lacks STAT1
The campaign covered roughly 190,000 compounds. About 1,700 (0.89%) were called active.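 How the source made its calls: active means inhibition above the mean inhibition across all screened compounds plus 3 SD (cut at about 44% in these data); inactive means the rest.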 For the sample, actives were picked, then their nearest neighbours and some compounds at random.
Can you answer with just one of these options? active, inactive

Hi, sorry to bother you, what did the test record for COc1ccc(C2=NOC(COC(=O)c3ccc4ccccc4n3)C2)cc1 (stereo unspecified) ? inactive

Hi, sorry to bother you, what did the test record for `Cn1cccc1-c1nc2ccccc2n1C` ? inactive

Hi, sorry to bother you, what did the test record for CC1=CC=CN2C1=NC(=O)CC2(C)C(=O)N(CC(=O)NC1CCCC1)c1ccccc1C (stereo unspecified) ? inactive

Hi, sorry to bother you, what did the test record for `Cn1c(CNC(=O)C(C)(C)C)nc2ccccc21` ? inactive

Hi, sorry to bother you, what did the test record for `CC[C@H]1CN2CCc3cc(OC)c(OC)cc3[C@@H]2C[C@@H]1C[C@H]1NCCc2cc(OC)c(OC)cc21` ? active

Hi, sorry to bother you, what did the test record for O=C(c1ccccc1)c1ccc(OCC(O)CN2CCCC2)cc1 (stereo unspecified) ? inactive

Hi, sorry to bother you, what did the test record for `Cc1ccsc1C(=O)OCC(=O)c1cc2ccccc2o1` ? inactive

Hi, sorry to bother you, what did the test record for Cc1ccc(C2CCN(C(=S)Nc3cccc(Cl)c3)C2)cc1 (stereo unspecified) ? inactive

Hi, sorry to bother you, what did the test record for `Cn1c(-c2ccc(C(=O)c3ccccc3)s2)nc2ccccc21` ? active

Hi, sorry to bother you, what did the test record for `CCN(CCCNC(=O)CSc1cc(=O)n(C)c2cc(Cl)ccc12)Cc1ccccc1` ? inactive

Hi, sorry to bother you, what did the test record for `COc1ccc(C2=Nc3cc(C)ccc3OC2)cc1` ? active

###

Test: blockers of STAT3 transcriptional signaling – U3A cells, luciferase, luminescence, MLSCN library, primary screen (AID 862);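 further: 0% = DMSO only wells and 100% = 100 µM nifuroxazide control wells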
Details: IL-6 STAT3-luciferase reporter, at 5.5 µM, stronger effect = higher value, host cell line lacks STAT1
The whole screen tested about 190,000 compounds, of which about 1,700 (0.89%) were called active. The full list was thinned out, with actives kept by preference.
Kindly supply the reported inhibition values for the records listed here.
Kindly answer with a numeric value in %, unit omitted.

Quick one: give measured inhibition for `Cc1ccc(NC(=O)Nc2nnc(-c3ccncc3)s2)cc1` 9.8

Quick one: give measured inhibition for `Cn1cc([N+](=O)[O-])c(C(=O)Nc2ccc3c(c2)OCCO3)n1` 51.3

Quick one: give measured inhibition for `CCCCCc1ccc(-c2ccc(C(=O)O)cc2)nc1` 52.6

Quick one: give measured inhibition for `Brc1ccc2nc(N3CCCC3)sc2c1` 30.3

Quick one: give measured inhibition for `O=C(CN1C(=O)c2ccccc2S1(=O)=O)N1CCc2ccccc21` 89.1

Quick one: give measured inhibition for `O=C(CN1CCN(c2ccccn2)CC1)N1CCc2ccccc21` 1.6

Quick one: give measured inhibition for `COc1ccc2nc(Nc3nc4cc5c(cc4s3)OCCO5)sc2c1` 10.2

Quick one: give measured inhibition for CC(C)CNC(=O)CC(NCC(C)C)C(=O)O (configuration not stated) 17.2

Quick one: give measured inhibition for `CCNC(=S)NNC(=O)c1ccc2ncccc2c1` 7.8

Quick one: give measured inhibition for `CCCCCC(=O)Nc1ccc(-c2cn3cccnc3n2)cc1` 11.1

Quick one: give measured inhibition for `CNC(=O)CN1C(=O)c2ccccc2S1(=O)=O` 10.2

Quick one: give measured inhibition for `O=C(O)c1ccc(N/N=C/c2ccc3ncccc3c2)cc1` 69.5

###

Assay: blockers of STAT3 transcriptional signaling – U3A cells, luciferase, luminescence, MLSCN library, primary screen (AID 862);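 further: 0% = DMSO only wells and 100% = 100 µM nifuroxazide control wells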
Conditions: IL-6 STAT3-luciferase reporter, at 5.5 µM, host cell line lacks STAT1
Out of some 190,000 compounds screened, about 1,700 (0.89%) were called active.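 Rule for the calls: active = inhibition above the mean inhibition across all screened compounds plus 3 SD (cut at about 44% in these data); inactive = the rest.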 The sample holds actives, similar compounds and a random draw of the others, so the mix is not that of the screen.
Can you answer with just one of these options? active, inactive

Hi, sorry to bother you, what did the test record for `Cc1cccc(C)c1Nc1nnc(SCC(=O)Nc2sccc2C#N)s1` ? inactive

Hi, sorry to bother you, what did the test record for `CCC(=O)Oc1cccc(C(=O)Nc2ccc(-c3nnc(-c4ccco4)o3)cc2)c1` ? inactive

Hi, sorry to bother you, what did the test record for `CCCn1nc(C(=O)Nc2ccc3nc(C)sc3c2)c2ccccc2c1=O` ? inactive

Hi, sorry to bother you, what did the test record for COc1ccc(N2C(=O)C(O)C2c2ccc(C)cc2)cc1 (configuration not stated) ? inactive

Hi, sorry to bother you, what did the test record for `O=C(NCCCn1ccnc1)C(=O)c1cn(CC(=O)N2CCCCCC2)c2ccccc12` ? inactive

Hi, sorry to bother you, what did the test record for Clc1cccc(-c2nc(NCC3CCCO3)c3ccccc3n2)c1 (configuration not stated) ? inactive

Hi, sorry to bother you, what did the test record for `O=[N+]([O-])c1ccc2oc(-c3cccc(O)c3)nc2c1` ? inactive

Hi, sorry to bother you, what did the test record for `COc1ccc(NC(=O)CSc2nc(C)cs2)cc1` ? inactive

Hi, sorry to bother you, what did the test record for `Cc1csc(SCC(=O)Nc2sccc2C#N)n1` ? active

Hi, sorry to bother you, what did the test record for `O=C(CCc1ccccc1)Nc1cccc(-c2nnc(-c3ccco3)o2)c1` ? inactive

Hi, sorry to bother you, what did the test record for `CCCCSc1nnc(-c2ccc(C)cc2)o1` ? inactive

Hi, sorry to bother you, what did the test record for `CCOc1ccc(-c2nnc(-c3ccco3)o2)cc1` ? active

Hi, sorry to bother you, what did the test record for `Cc1c(C(=O)O)nnn1-c1nonc1N` ? inactive

Hi, sorry to bother you, what did the test record for `CN(C)S(=O)(=O)c1ccc(NC(=O)COC(=O)c2n[nH]c3ccccc23)cc1` ? active

Hi, sorry to bother you, what did the test record for `CCOc1ccc(NS(=O)(=O)c2ccc(C)c(C(N)=O)c2)cc1` ? inactive

Hi, sorry to bother you, what did the test record for CCCOC1CCCN(Cc2cn(C)nc2-c2ccccc2F)C1 (configuration not stated) ? inactive

Hi, sorry to bother you, what did the test record for `Cc1ccc(N/C=C/C(=O)c2ccccc2)cc1C` ? active

Hi, sorry to bother you, what did the test record for `O=C(COC(=O)c1n[nH]c2ccccc12)NCc1ccccc1` ? inactive

Hi, sorry to bother you, what did the test record for `CCOC(=O)CNc1nc2ccccc2n2c(C)nnc12` ? inactive

Hi, sorry to bother you, what did the test record for `O=C(/C=C\NCC(=O)c1ccccc1)c1ccccc1` ? inactive

Hi, sorry to bother you, what did the test record for `CO/N=C/CC(=O)c1ccc(OC)cc1` ? inactive

Hi, sorry to bother you, what did the test record for `O=C(N/N=C/c1ccccc1O)/C(=C/c1ccccc1)CCO` ? inactive

###

Kindly supply the reported inhibition values for the records listed here.
Assay: blockers of STAT3 transcriptional signaling – U3A cells, luciferase, luminescence, MLSCN library, primary screen (AID 862);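 further: 0% = DMSO only wells and 100% = 100 µM nifuroxazide control wells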
Settings: IL-6 STAT3-luciferase reporter, at 5.5 µM, stronger effect = higher value, host cell line lacks STAT1
Hit rate of the full screen: of about 190,000 compounds, about 1,700 (0.89%) were called active. The list comes from a sample in which actives are over-represented; it also holds close analogues and randomly drawn compounds.

Quick one: give measured inhibition for CN(C)C(CNC(=O)c1cccc(C#N)c1)c1ccco1 (configuration not stated) 5.3% (inactive)

Quick one: give measured inhibition for `COc1nc(-c2ccc(Cl)cc2)ccc1-c1noc(-c2cccs2)n1` -4.2% (inactive)

Quick one: give measured inhibition for `O=C1CCCN1CCCNc1ncnc2c1[nH]c1ccccc12` -56.6% (inactive)

Quick one: give measured inhibition for `Cc1cc(C)c2c(n1)sc1c(=O)n(-c3ccccc3)c(=O)[nH]c12` 1.2% (inactive)

Quick one: give measured inhibition for `O=C(Oc1ccccc1)c1ccc2nccnc2c1` 2.6% (inactive)

Quick one: give measured inhibition for `CC(C)c1nc(-c2ccccn2)no1` -0.3% (inactive)

Quick one: give measured inhibition for `O=C(Oc1ccc(-c2nc(-c3ccccn3)no2)cc1)c1ccccc1` 76.7% (active)

Quick one: give measured inhibition for `CCOc1cccc(/C=N/N2C(=O)CSC2=S)c1O` 2.5% (inactive)

Quick one: give measured inhibition for O=C1NC(=Nc2ccc(Cl)cc2)SC1Cc1cccc(Cl)c1Cl (configuration not stated) 0.2% (inactive)

Quick one: give measured inhibition for COc1ccccc1C1SCCN1C(=O)c1ccc([N+](=O)[O-])cc1 (configuration not stated) -1.1% (inactive)

Quick one: give measured inhibition for CCN1CCCC1CNc1ncnc2c1[nH]c1ccc(F)cc12 (configuration not stated) -30.1% (inactive)

Quick one: give measured inhibition for `CCn1c(NC(=O)c2nn(C)cc2Br)nc2ccccc21` 5.2% (inactive)

###

Experiment: blockers of STAT3 transcriptional signaling – U3A cells, luciferase, luminescence, MLSCN library, primary screen (AID 862);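 further: 0% = DMSO only wells and 100% = 100 µM nifuroxazide control wells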
Conditions: IL-6 STAT3-luciferase reporter, at 5.5 µM, stronger effect = higher value, host cell line lacks STAT1
Among all 190,000 compounds or so, about 1,700 (0.89%) were called active. Shown is part of a subset that was picked to be rich in actives.
Measured metric: inhibition (%)
Kindly answer with a numeric value in %, unit omitted.

Quick one: give measured inhibition for `Cc1ccc2c(=O)oc(N(C)C)nc2c1` -6.4

Quick one: give measured inhibition for `CCCN(CC(=O)Nc1ccccc1C)C(=O)c1cc(=O)[nH]c2ccccc12` 3.5

Quick one: give measured inhibition for `Cc1ccc(-c2cn3cc([N+](=O)[O-])ccc3n2)cc1` 86.6

Quick one: give measured inhibition for `S=C(NN=C1CCN(Cc2ccccc2)CC1)NC1CCCCC1` -0.1

Quick one: give measured inhibition for `Cc1nc(-c2ccc(NC(=O)c3cccs3)cc2)cs1` 78.1

Quick one: give measured inhibition for `CCc1ccc(CN(C)Cc2nc(Cc3ccccc3)no2)nc1` -2.9

Quick one: give measured inhibition for `Cc1ccc(-c2cn(S(=O)(=O)c3cccc([N+](=O)[O-])c3)nc2N)cc1` 12.3

Quick one: give measured inhibition for Cc1cc(C)nc(SC2CCCCC2NS(=O)(=O)c2ccc(Cl)cc2)n1 (stereo unspecified) -5.1

Quick one: give measured inhibition for Cc1ccc(N2C(=O)SC(N(CC(=O)O)c3ccc(C)cc3)C2=O)cc1 (stereo unspecified) 0.7

Quick one: give measured inhibition for `O=C(N/N=C/C=C/c1ccco1)c1cccs1` -6.8

Quick one: give measured inhibition for `Cc1ccc(-c2cc(C(=O)N/N=C/C=C/c3ccco3)c3ccccc3n2)cc1C` 46.8
